biological target: human vWF A1 domain (SEQ ID NO 5) (Homo sapiens, UniProt P04275, T1381A); test: 3-point dot blot screen, human vWF A1 domain; assay type: binding; details: DNA SELEX 1 aptamers; 100 nM human vWF A1 domain; ratio of fraction bound with target to without
Sequence (P04275 with tags, fused parts or gaps T1381A): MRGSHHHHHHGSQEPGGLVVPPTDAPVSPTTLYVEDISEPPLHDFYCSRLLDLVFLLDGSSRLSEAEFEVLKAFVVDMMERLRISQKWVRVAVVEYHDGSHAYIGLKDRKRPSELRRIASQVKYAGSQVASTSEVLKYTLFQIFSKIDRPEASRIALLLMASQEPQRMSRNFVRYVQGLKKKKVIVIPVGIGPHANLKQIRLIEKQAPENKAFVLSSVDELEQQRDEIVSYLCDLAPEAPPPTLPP
parameter.measured: Screen- Human/No Protein

[[record]]
molecule = "AMX199.G4: DNA SELEX 1 aptamer clone (nucleic acid, DNA, backbone not given here, DNA SELEX 1 aptamer clone) DNA: CTACCTACGATCTGACTAGCGAAACACTAGGTTGGTTAGGATTGGTGTGTTCCCGCTATGCTTACTCTCATGTAGTTCC"
parameter_measured = "Screen- Human/No Protein"
reading = 1.19

[[record]]
molecule = "AMX200.E8: DNA SELEX 1 aptamer clone (nucleic acid, DNA, backbone not given here, DNA SELEX 1 aptamer clone) DNA: CTACCTACGATCTGACTAGCGGAATGAGGATGCTGGTGGATTGCTCAGGTCTGTTGGCTGCTTACTCTCATGTAGTTCC"
parameter_measured = "Screen- Human/No Protein"
reading = 1.04

[[record]]
molecule = "AMX199.F10: DNA SELEX 1 aptamer clone (nucleic acid, DNA, backbone not given here, DNA SELEX 1 aptamer clone) DNA: CTACCTACGATCTGACTAGCGAAACACTAGGTTGGTTAGGATTGGTGTGTTTCCGTTCTGCTTACTCTCATGTAGTTCC"
parameter_measured = "Screen- Human/No Protein"
reading = 1.17

[[record]]
molecule = "AMX200.F9: DNA SELEX 1 aptamer clone (nucleic acid, DNA, backbone not given here, DNA SELEX 1 aptamer clone) DNA: CTACCTACGATCTGACTAGCGGAATGAGGATGCTGATGGATTGGTCAGGTCTGCTGGCTGCTTACTCTCATGTAGTTCC"
parameter_measured = "Screen- Human/No Protein"
reading = 0.97

[[record]]
molecule = "AMX199.D11: DNA SELEX 1 aptamer clone (nucleic acid, DNA, backbone not given here, DNA SELEX 1 aptamer clone) DNA: CTACCTACGATCTGACTAGCGGAATGAGAATGCTGGTGGATTGCTCAGGTCTGCTGGCTGCTTACTCTCATGTAGTTCC"
parameter_measured = "Screen- Human/No Protein"
reading = 4.19

[[record]]
molecule = "AMX200.D3: DNA SELEX 1 aptamer clone (nucleic acid, DNA, backbone not given here, DNA SELEX 1 aptamer clone) DNA: CTACCTACGATCTGACTAGCGCAATGAGGATGCTGATGGATTGCTCAGGTCTGCTGGCTGCTTACTCTCATGTAGTTCC"
parameter_measured = "Screen- Human/No Protein"
reading = 2.68

[[record]]
molecule = "AMX202.A8: DNA SELEX 1 aptamer clone (nucleic acid, DNA, backbone not given here, DNA SELEX 1 aptamer clone) DNA: CTACCTACGATCTGACTAGCAAGGGGATTGGCTCCGGGTCTGGCGTGCTCGGCACTTCCGGCTTACTCTCATGTAGTTCC"
parameter_measured = "Screen- Human/No Protein"
reading = 1.27

[[record]]
molecule = "AMX200.C11: DNA SELEX 1 aptamer clone (nucleic acid, DNA, backbone not given here, DNA SELEX 1 aptamer clone) DNA: CTACCTACGATCTGACTAGCGGAATGAGAGTGCTGATGGATTGCTCAGGTCTGCTGGCTGCTTACTCTCATGTAGTTCC"
parameter_measured = "Screen- Human/No Protein"
reading = 6.00

[[record]]
molecule = "AMX199.C2: DNA SELEX 1 aptamer clone (nucleic acid, DNA, backbone not given here, DNA SELEX 1 aptamer clone) DNA: CTACCTACGATCTGACTAGCGGAATGAGAATGCTGGTGGATTGCCCAGGTCTGCTGGCTGCTTACTCTCATGTAGTTCC"
parameter_measured = "Screen- Human/No Protein"
reading = 5.09

[[record]]
molecule = "AMX200.D8: DNA SELEX 1 aptamer clone (nucleic acid, DNA, backbone not given here, DNA SELEX 1 aptamer clone) DNA: CTACCTACGATCTGACTAGCGGAATGAGAATGTTGATGGATTGCTCAGGTCTGCTGGCTGCTTACTCTCATGTAGTTCC"
parameter_measured = "Screen- Human/No Protein"
reading = 2.86

[[record]]
molecule = "AMX199.C4: DNA SELEX 1 aptamer clone (nucleic acid, DNA, backbone not given here, DNA SELEX 1 aptamer clone) DNA: CTACCTACGATCTGACTAGCGGAATGAGGATGCTGATGGATTGCACAGGTCTGCTGGCTGCTTACTCTCATGTAGTTCC"
parameter_measured = "Screen- Human/No Protein"
reading = 3.60

[[record]]
molecule = "AMX202.D6: DNA SELEX 1 aptamer clone (nucleic acid, DNA, backbone not given here, DNA SELEX 1 aptamer clone) DNA: CTACCTACGATCTGACTAGCGGAATGAGAAGGCTGATGGATTGCTCAGGTCTGCTGGCTGCTTACTCTCATGTAGTTCC"
parameter_measured = "Screen- Human/No Protein"
reading = 1.94

[[record]]
molecule = "AMX199.B3: DNA SELEX 1 aptamer clone (nucleic acid, DNA, backbone not given here, DNA SELEX 1 aptamer clone) DNA: CTACCTACGATCTGACTAGCGGAATGAGAATGCTGATGGATTGCTCAGGTCTGCTGGCTGCTTACTCTCATGTAGTTCC"
parameter_measured = "Screen- Human/No Protein"
reading = 1.76

[[record]]
molecule = "AMX202.F6: DNA SELEX 1 aptamer clone (nucleic acid, DNA, backbone not given here, DNA SELEX 1 aptamer clone) DNA: CTACCTACGATCTGACTAGCAAGGGGATTGGCTCCGGGTCTGGCGTGCTCGGCACCTTCGGCTTACTCTCATGTAGTTCC"
parameter_measured = "Screen- Human/No Protein"
reading = 1.49

[[record]]
molecule = "AMX199.F8: DNA SELEX 1 aptamer clone (nucleic acid, DNA, backbone not given here, DNA SELEX 1 aptamer clone) DNA: CTACCTACGATCTGACTAGCAAGGGGATTGGCTCCGGGTCTGGCGTGCTTGGCACCTCTGGCTTACTCTCATGTAGTTCC"
parameter_measured = "Screen- Human/No Protein"
reading = 1.78

[[record]]
molecule = "AMX199.G10: DNA SELEX 1 aptamer clone (nucleic acid, DNA, backbone not given here, DNA SELEX 1 aptamer clone) DNA: CTACCTACGATCTGACTAGCGGAATGAGAATGTTGGTGGATTGCTCAGGTCTGCTGGCTGCTTACTCTCATGTAGTTCC"
parameter_measured = "Screen- Human/No Protein"
reading = 4.97

